Each recorded value in this set is attributed to ChEMBL document CHEMBL5500411.

Method: Dose normalized AUC (0 to infinity) in male ICR mouse at 2 mg/kg, iv measured after 24 hrs by LC-MS/MS analysis
Format: ADME, organism-based
Condition Description: in vivo
Quantity Name: AUC/dose (ng.hr/ml per mg/kg)

Cn1cc(-c2oc3ncnc(Oc4ccc(NC(=O)c5cccn(-c6ccc(F)cc6)c5=O)cc4)c3c2-c2cccc(N3CCNCC3)c2)cn1: 454.5

[A] Cn1cc(-c2oc3ncnc(Oc4ccc(NC(=O)c5cccn(-c6ccc(F)cc6)c5=O)cc4)c3c2-c2cccc(CN)c2)cn1
[B] CN1CCN(c2cccc(-c3c(-c4cnn(C)c4)oc4ncnc(Oc5ccc(NC(=O)c6cccn(-c7ccc(F)cc7)c6=O)cc5)c34)c2)CC1
[C] CNc1cccc(-c2c(-c3cnn(C)c3)oc3ncnc(Oc4ccc(NC(=O)c5cccn(-c6ccc(F)cc6)c5=O)cc4)c23)c1
Could you please order the items by AUC/dose, going from the lowest number to the highest? I would appreciate it if you listed the labels in the requested order.
B, A, C
(B: 221 ng.hr/ml per mg/kg, A: 483 ng.hr/ml per mg/kg, C: 3330.5 ng.hr/ml per mg/kg)

----------
Experimental Target: UniProt P30530
Sequence (P30530 whole entry): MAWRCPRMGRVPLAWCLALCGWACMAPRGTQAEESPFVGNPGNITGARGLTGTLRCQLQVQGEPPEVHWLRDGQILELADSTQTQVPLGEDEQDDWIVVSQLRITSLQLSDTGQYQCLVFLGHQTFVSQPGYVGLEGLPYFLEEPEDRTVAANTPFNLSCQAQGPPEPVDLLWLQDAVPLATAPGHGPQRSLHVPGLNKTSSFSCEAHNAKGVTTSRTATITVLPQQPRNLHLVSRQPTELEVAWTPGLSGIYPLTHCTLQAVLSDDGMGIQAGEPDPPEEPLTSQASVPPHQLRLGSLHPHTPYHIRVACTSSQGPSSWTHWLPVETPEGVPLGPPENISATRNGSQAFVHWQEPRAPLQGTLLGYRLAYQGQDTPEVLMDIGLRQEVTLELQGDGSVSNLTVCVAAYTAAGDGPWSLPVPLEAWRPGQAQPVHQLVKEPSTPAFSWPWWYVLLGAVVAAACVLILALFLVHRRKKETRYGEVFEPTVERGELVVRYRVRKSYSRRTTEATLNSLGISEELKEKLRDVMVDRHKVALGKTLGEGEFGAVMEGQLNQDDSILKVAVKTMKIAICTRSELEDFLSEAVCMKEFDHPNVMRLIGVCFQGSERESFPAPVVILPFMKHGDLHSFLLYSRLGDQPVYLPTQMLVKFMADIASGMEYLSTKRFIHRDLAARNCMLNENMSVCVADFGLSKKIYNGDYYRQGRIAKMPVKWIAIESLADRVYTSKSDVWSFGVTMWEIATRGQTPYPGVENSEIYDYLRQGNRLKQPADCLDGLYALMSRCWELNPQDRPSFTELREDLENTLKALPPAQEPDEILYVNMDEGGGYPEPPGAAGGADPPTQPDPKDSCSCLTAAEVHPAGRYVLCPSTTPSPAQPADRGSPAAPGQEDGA
Method: Inhibition of AXL (unknown origin) at 1 uM preincubated for 15 mins followed by substrate and ATP addition and measured after 3 hrs by ADP-Glo kinase assay relative to control
Condition Description: time 195.0 min
Quantity Name: inhibition (%)

[1] Nc1cccc(-c2c(-c3ccccc3)oc3ncnc(Nc4ccc(NC(=O)C5(C(=O)Nc6ccc(F)cc6)CC5)cc4)c23)c1
[2] O=C(Nc1ccc(F)cc1)C1(C(=O)Nc2ccc(Oc3ncnc4oc(-c5ccccc5)cc34)cc2)CC1
Of 1 and 2 , whose reported inhibition is the larger number? To answer, give the label that identifies your chosen option.
1

----------
Experimental Target: Tyrosine-protein kinase Mer (Homo sapiens, UniProt Q12866)
Sequence (Q12866 whole entry): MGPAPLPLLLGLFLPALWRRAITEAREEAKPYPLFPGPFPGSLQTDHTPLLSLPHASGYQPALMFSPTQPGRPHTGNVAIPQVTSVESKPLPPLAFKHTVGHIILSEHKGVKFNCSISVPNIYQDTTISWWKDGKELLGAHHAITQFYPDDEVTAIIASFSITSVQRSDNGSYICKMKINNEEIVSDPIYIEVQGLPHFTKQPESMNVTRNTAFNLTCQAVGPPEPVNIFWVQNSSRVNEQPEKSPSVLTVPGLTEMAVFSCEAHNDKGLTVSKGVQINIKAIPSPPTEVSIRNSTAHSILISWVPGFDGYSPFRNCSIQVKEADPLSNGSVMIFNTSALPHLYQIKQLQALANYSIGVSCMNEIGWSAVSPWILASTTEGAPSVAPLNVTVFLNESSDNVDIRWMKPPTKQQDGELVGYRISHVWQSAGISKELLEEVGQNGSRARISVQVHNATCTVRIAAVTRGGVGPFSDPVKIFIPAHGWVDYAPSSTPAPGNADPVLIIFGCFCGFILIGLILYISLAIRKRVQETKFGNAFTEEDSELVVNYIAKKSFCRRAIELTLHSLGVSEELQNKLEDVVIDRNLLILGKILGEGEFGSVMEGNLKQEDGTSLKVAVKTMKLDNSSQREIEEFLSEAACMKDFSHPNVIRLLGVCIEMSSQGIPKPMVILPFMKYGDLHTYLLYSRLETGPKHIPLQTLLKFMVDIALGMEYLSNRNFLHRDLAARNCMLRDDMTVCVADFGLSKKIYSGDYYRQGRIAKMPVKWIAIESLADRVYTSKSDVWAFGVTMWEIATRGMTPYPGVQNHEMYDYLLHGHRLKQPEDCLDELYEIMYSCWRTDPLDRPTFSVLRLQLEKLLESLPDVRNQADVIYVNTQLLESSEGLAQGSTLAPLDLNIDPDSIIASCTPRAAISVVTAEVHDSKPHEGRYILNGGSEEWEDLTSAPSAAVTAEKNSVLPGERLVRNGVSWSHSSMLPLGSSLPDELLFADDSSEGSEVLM
Quantity Name: pIC50
// scale note: pIC50 = -log10(conc_M); give the bare number

Please report the recorded pIC50 for Cc1ccc(C(=O)Nc2ccc(Oc3cc4cnn(C)c4cc3-c3cn[nH]c3)c(F)c2)c(=O)n1-c1ccc(F)cc1 .
9.10
